From: ChEMBL document CHEMBL4304740

Test: in vivo
Settings: Crl:CD(ICR), mouse, brain/plasma, po, 30 mg/kg
propertyLabel: Kp
Answer using only a numeral; do not append any unit.

Kp reading for C[C@]1(c2cc(NC(=O)c3cnc(OCF)cn3)ccc2F)N=C(N)SCC12CCC(F)(F)CC2 : 0.55

###

Field: logD. Provide a value for each of the molecules that follow.
Assay: physchem
Conditions: octanol/phosphate buffered saline, pH 7.4

logD in this record for C[C@]1(c2cc(NC(=O)c3cnc(OCF)cn3)ccc2F)N=C(N)SCC12CCC(F)(F)CC2 : 2.3

Note to self: logD recorded for C[C@]1(c2cc(NC(=O)c3cnc(OCF)cn3)ccc2F)N=C(N)SCC12CCOCC2 was 1.2
